target: T1, human C-KIT-Fc (human, UniProt P10721 26-524); assay: HTRF competition on human C-KIT-Fc against terbium-labelled h37M IgG1
T1 construct: also called biotinylated human C-KIT-Fc; not shown: Fc part not described
measurementName: binding result

binder	measurementName	result
MH2 (antibody, IgG1, V domains shown, IgG1) VH: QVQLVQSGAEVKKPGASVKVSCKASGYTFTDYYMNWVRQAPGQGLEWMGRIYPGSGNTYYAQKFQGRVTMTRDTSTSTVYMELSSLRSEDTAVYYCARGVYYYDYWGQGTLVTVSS VL: DIQMTQSPSSLSASVGDRVTITCRASQGIRTNLAWFQQKPGKAPKSLIYSASSLQSGVPSRFSGSGSGTDFTLTISSLQPEDFATYYCQQYASYPRTFGGGTKVEIK	binding result	binds
MH3 (antibody, IgG1, V domains shown, IgG1) VH: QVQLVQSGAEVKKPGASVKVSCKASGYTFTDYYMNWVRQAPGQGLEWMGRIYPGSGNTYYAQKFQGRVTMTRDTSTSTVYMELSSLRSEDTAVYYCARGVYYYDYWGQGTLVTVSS VL: DIQMTQSPSSLSASVGDRVTITCRASQGIRTNLAWFQQKPGKAPKSLIYSASSLQSGVPSRFSGSGSGTDFTLTISSLQPEDFATYYCQQYNAYPRTFGGGTKVEIK	binding result	binds
